Ref: paper PMC6917776

assayText: CelltiterGlo viability cell assay
Format: cell-based
measurementContext: human, HCC1143 breast cancer cells, HCC1143, 3 day, 3 uM; read-out: viability Replicate 3
readoutName: viability at 3 day, 3 µM (%)

>  <smilesRepresentation>
COc1cc(OC)cc(-c2noc(N3CCN(C)C4(CCN(c5ccnc(C)c5)CC4)C3)n2)c1

>  <readoutUnit>
%

>  <observedResult>
93

$$$$

---

assayText: CelltiterGlo viability cell assay
Format: cell-based
measurementContext: human, CAL851 breast cancer cells, CAL851, 6 day, 1 uM; read-out: viability Average

>  <compound>
COc1cc(OC)cc(-c2noc(N3CCN(C)C4(CCN(c5ccnc(C)c5)CC4)C3)n2)c1 [MRK-740]

>  <viability at 6 day, 1 µM, %>
117

$$$$

---

assayText: CelltiterGlo viability cell assay
Type: cell-based
measurementContext: human, RPMI-8226 cells (multiple myeloma line), 8226, 3 day, 9.5 uM; read-out: viability Replicate 2

>  <molecule>
COc1cc(OC)cc(-c2noc(N3CCN(C)C4(CCN(c5ccnc(C)c5)CC4)C3)n2)c1 [MRK-740]

>  <viability at 3 day, 9.5 µM [%]>
96.6

$$$$

---

assayText: CelltiterGlo viability cell assay
Type: cell-based
measurementContext: human, SKMM2 multiple myeloma cells, SKMM2, 6 day, 30 uM; read-out: viability Average

>  <compound>
COc1cc(OC)cc(-c2noc(N3CCN(C)C4(CCN(c5ccnc(C)c5)CC4)C3)n2)c1 [MRK-740]

>  <readoutUnit>
%

>  <viability at 6 day, 30 µM>
71.5

$$$$

---

assayText: CelltiterGlo viability cell assay
Assay type: cell-based
measurementContext: human, CAL851 breast cancer cells, CAL851, 6 day, 1 uM; read-out: viability Replicate 2

>  <compound>
COc1cc(OC)cc(-c2noc(N3CCN(C)C4(CCN(c5ccnc(C)c5)CC4)C3)n2)c1 [MRK-740]

>  <viability at 6 day, 1 µM>
108%

$$$$

---

assayText: CelltiterGlo viability cell assay
Format: cell-based
measurementContext: human, SKMM2 cells (multiple myeloma line), SKMM2, 6 day, 0.1 uM; read-out: viability Average

>  <molecule>
COc1cc(OC)cc(-c2noc(N3CCN(C)C4(CCN(c5ccnc(C)c5)CC4)C3)n2)c1 [MRK-740]

>  <viability at 6 day, 0.1 µM>
96.7%

$$$$

---

assayText: CelltiterGlo viability cell assay
Format: cell-based
measurementContext: human, SKMM2 cells, SKMM2, 3 day, 0.01 uM; read-out: viability Replicate 2

>  <compound>
COc1cc(OC)cc(-c2noc(N3CCN(C)C4(CCN(c5ccnc(C)c5)CC4)C3)n2)c1 [MRK-740]

>  <viability at 3 day, 0.01 µM (%)>
99.6

$$$$

---

testedTarget: PRDM9 (Homo sapiens, UniProt Q9NQV7)
Construct: PRDM9 (amino acids: 195–415)
Sequence (Q9NQV7 195-415): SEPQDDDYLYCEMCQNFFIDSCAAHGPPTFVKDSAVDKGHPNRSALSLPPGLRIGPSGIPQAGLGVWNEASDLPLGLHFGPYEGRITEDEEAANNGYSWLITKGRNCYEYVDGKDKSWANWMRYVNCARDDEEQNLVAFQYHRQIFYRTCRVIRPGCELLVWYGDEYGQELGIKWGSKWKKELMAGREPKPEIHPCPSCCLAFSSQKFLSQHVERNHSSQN
assayText: MOA determination: IC50 at varying SAM or peptide concentrations (SPA)
Type: biochemical
measurementContext: [SAM]/Km 1.46; Figure 2d; average of replicates; read-out: Average IC50

>  <compound>
COc1cc(OC)cc(-c2noc(N3CCN(C)C4(CCN(c5ccnc(C)c5)CC4)C3)n2)c1 [MRK-740]

>  <IC50 / nM>
275

$$$$

---

assayText: CelltiterGlo viability cell assay
Type: cell-based
measurementContext: human, RPMI-8226 multiple myeloma cells, 8226, 6 day, 3 uM; read-out: viability Average
readoutName: viability at 6 day, 3 µM (%)

>  <compound>
COc1cc(OC)cc(-c2noc(N3CCN(C)C4(CCN(c5ccnc(C)c5)CC4)C3)n2)c1 [MRK-740]

>  <readoutName>
viability at 6 day, 3 µM

>  <readoutUnit>
%

>  <observedResult>
92.6

$$$$

---

assayText: CelltiterGlo viability cell assay
Type: cell-based
measurementContext: human, RPMI-8226 multiple myeloma cells, 8226, 3 day, 0.3 uM; read-out: viability Average
readoutName: viability at 3 day, 0.3 µM (%)

>  <smilesRepresentation>
COc1cc(OC)cc(-c2noc(N3CCN(C)C4(CCN(c5ccnc(C)c5)CC4)C3)n2)c1

>  <readoutName>
viability at 3 day, 0.3 µM

>  <readoutUnit>
%

>  <observedResult>
102

$$$$

---

assayText: CelltiterGlo viability cell assay
Assay type: cell-based
measurementContext: human, CAL851 breast cancer cells, CAL851, 6 day, 30 uM; read-out: viability Replicate 2
readoutName: viability at 6 day, 30 µM (%)

>  <compound>
COc1cc(OC)cc(-c2noc(N3CCN(C)C4(CCN(c5ccnc(C)c5)CC4)C3)n2)c1 [MRK-740]

>  <readoutName>
viability at 6 day, 30 µM

>  <observedResult>
11.9

$$$$

---

assayText: CelltiterGlo viability cell assay
Assay type: cell-based
measurementContext: human, HCC1806 breast cancer cells, HCC1806, 6 day, 30 uM; read-out: viability Average

>  <smilesRepresentation>
COc1cc(OC)cc(-c2noc(N3CCN(C)C4(CCN(c5ccnc(C)c5)CC4)C3)n2)c1

>  <readoutUnit>
%

>  <viability at 6 day, 30 µM>
4.91

$$$$

---

assayText: CelltiterGlo viability cell assay
Type: cell-based
measurementContext: human, CAL851 breast cancer cells, CAL851, 3 day, 9.5 uM; read-out: viability Replicate 1

>  <compound>
COc1cc(OC)cc(-c2noc(N3CCN(C)C4(CCN(c5ccnc(C)c5)CC4)C3)n2)c1 [MRK-740]

>  <readoutUnit>
%

>  <viability at 3 day, 9.5 µM>
69.7

$$$$

---

assayText: CelltiterGlo viability cell assay
Assay type: cell-based
measurementContext: human, HCC1143 breast cancer cells, HCC1143, 3 day, 3 uM; read-out: viability Average

>  <smilesRepresentation>
COc1cc(OC)cc(-c2noc(N3CCN(C)C4(CCN(c5ccnc(C)c5)CC4)C3)n2)c1

>  <readoutUnit>
%

>  <viability at 3 day, 3 µM>
92.9

$$$$

---

assayText: CelltiterGlo viability cell assay
Format: cell-based
measurementContext: human, MDA-MB-436 breast cancer cells, MDA MB436, 6 day, 0.01 uM; read-out: viability Average

>  <smilesRepresentation>
COc1cc(OC)cc(-c2noc(N3CCN(C)C4(CCN(c5ccnc(C)c5)CC4)C3)n2)c1

>  <readoutUnit>
%

>  <viability at 6 day, 0.01 µM>
103

$$$$
